These data points were gathered from patent US12384801B2.

EC50 overview
# system-under-test: human HAQ isoform of STING (Homo sapiens (Human), UniProt Q86WV6, G230A/H232R/R293Q/R71H)
# Sequence (Q86WV6 whole entry R71H/G230A/H232R/R293Q, canonical isoform): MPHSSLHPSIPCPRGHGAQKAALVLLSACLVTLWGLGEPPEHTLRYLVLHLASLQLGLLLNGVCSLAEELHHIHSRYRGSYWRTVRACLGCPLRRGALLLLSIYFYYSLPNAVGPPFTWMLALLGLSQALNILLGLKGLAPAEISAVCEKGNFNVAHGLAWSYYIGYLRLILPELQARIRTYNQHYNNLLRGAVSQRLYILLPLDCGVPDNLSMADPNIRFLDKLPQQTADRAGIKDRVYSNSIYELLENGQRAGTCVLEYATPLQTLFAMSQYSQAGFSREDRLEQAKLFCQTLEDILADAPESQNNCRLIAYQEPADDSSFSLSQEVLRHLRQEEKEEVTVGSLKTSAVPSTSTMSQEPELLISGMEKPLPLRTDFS
# protocol-notes: THP-1 STING Lucia ISG reporter cell line assay
# run-conditions: 24 h incubation, luminescence, normalized to ML RR-S2 CDA 40 μM; read-out: EC50 THP-I STING Lucia ISG cells
Enter your answer as a number in µM; do not include the unit.

Worked cases, answers included:
compound	endpoint-result
NC(=O)c1ccc2c(c1)nc(-c1c(C(=O)O)sc3cccc(C(F)(F)F)c13)n2CCn1c(-c2c(C(=O)O)sc3cccc(C(F)(F)F)c23)nc2cc(C(N)=O)ccc21 (single isomer, unassigned) [Example 19.1]	0.189
COc1c(C(N)=O)ccc2c1nc(-c1c(C(=O)O)sc3cccc(Cl)c13)n2CCn1c(-c2c(C(=O)O)sc3cccc(Cl)c23)nc2c(OC)c(C(N)=O)ccc21 (single isomer, unassigned) [Example 22.1]	0.256

Reported EC50 of NC(=O)c1ccc2c(c1)nc(-c1c(C(=O)O)sc3c(F)ccc(Br)c13)n2CCn1c(-c2c(C(=O)O)sc3c(F)ccc(Br)c23)nc2cc(C(N)=O)ccc21 (single isomer, unassigned) [Example 20.2] : 14.7

###

# system-under-test: human STING (HAQ) (Homo sapiens (Human), UniProt Q86WV6, G230A/H232R/R293Q)
# Sequence (Q86WV6 149-345 G230A/H232R/R293Q): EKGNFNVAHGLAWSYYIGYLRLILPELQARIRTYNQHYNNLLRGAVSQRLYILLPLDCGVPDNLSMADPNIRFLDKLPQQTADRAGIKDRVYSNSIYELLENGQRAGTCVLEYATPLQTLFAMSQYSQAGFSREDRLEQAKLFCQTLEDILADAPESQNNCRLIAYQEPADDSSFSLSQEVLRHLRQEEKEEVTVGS
# protocol-notes: Surface Plasmon Resonance (SPR), STING (HAQ)
# run-conditions: read-out: SPR (HAQ) KD; biotinylated STING on streptavidin chip, 8° C.
quantity-kind: Kd
In your response, put the unit directly after the numeric value.

Worked cases, answers included:
compound	system-under-test	Kd
NC(=O)c1ccc2c(c1)nc(-c1c(C(=O)O)sc3cccc(Cl)c13)n2CCCn1c(-c2c(C(=O)O)sc3cccc(Cl)c23)nc2cc(C(N)=O)ccc21 (single isomer, unassigned)	human STING (HAQ) (Homo sapiens (Human), UniProt Q86WV6, G230A/H232R/R293Q)	35.1 µM
N#Cc1cccc2sc(C(=O)O)c(-c3nc4cc(C(N)=O)ccc4n3CCn3c(-c4c(C(=O)O)sc5cccc(C#N)c45)nc4cc(C(N)=O)ccc43)c12	human STING (HAQ) (Homo sapiens (Human), UniProt Q86WV6, G230A/H232R/R293Q)	38 µM

Would you kindly look at the next entry?
Reported Kd of NC(=O)c1ccc2c(c1)nc(-c1c(C(=O)O)sc3ccccc13)n2CCn1c(-c2c(C(=O)O)sc3ccccc23)nc2cc(C(N)=O)ccc21 : 10.1 µM

###

# system-under-test: human STING (HAQ) (Homo sapiens (Human), UniProt Q86WV6, G230A/H232R/R293Q)
# protocol-notes: biochemical
quantity-kind: pKd
pKd here: minus log base 10 of the concentration, concentration in moles per litre.

Reported pKd of NC(=O)c1ccc2c(c1)nc(-c1c(C(=O)O)sc3cccc(Cl)c13)n2CCCn1c(-c2c(C(=O)O)sc3cccc(Cl)c23)nc2cc(C(N)=O)ccc21 (single isomer, unassigned) [Example 4.2] : 4.78

###

# system-under-test: human HAQ isoform of STING (Homo sapiens (Human), UniProt Q86WV6, G230A/H232R/R293Q/R71H)
# protocol-notes: THP-1 STING Lucia ISG reporter cell line assay
# run-conditions: 24 h incubation, luminescence, normalized to ML RR-S2 CDA 40 μM; read-out: EC50 THP-I STING Lucia ISG cells
quantity-kind: EC50 (µM)
Enter your answer as a number in µM; do not include the unit.

compound	EC50 (µM)
NC(=O)c1ccc2c(c1)nc(-c1c(C(=O)O)sc3cccc(Cl)c13)n2CCn1c(-c2c(C(=O)O)sc3cccc(Cl)c23)nc2cc(C(N)=O)ccc21 (single isomer, unassigned) [Example 1.1]	0.681

Test item COc1cccc2sc(C(=O)O)c(-c3nc4cc(C(N)=O)ccc4n3CCn3c(-c4c(C(=O)O)sc5cccc(OC)c45)nc4cc(C(N)=O)ccc43)c12 (single isomer, unassigned) [Example 5.2] ; human HAQ isoform of STING (Homo sapiens (Human), UniProt Q86WV6, G230A/H232R/R293Q/R71H); reported EC50 was 1.66

Test item NC(=O)c1ccc2c(c1)nc(-c1c(C(=O)O)sc3cccc(Br)c13)n2CCn1c(-c2c(C(=O)O)sc3cccc(Br)c23)nc2cc(C(N)=O)ccc21 (single isomer, unassigned) [Example 11.2] ; human HAQ isoform of STING (Homo sapiens (Human), UniProt Q86WV6, G230A/H232R/R293Q/R71H); reported EC50 was 5.48

Test item NC(=O)c1ccc2c(c1)nc(-c1c(C(=O)O)sc3c(F)ccc(Cl)c13)n2CCn1c(-c2c(C(=O)O)sc3c(F)ccc(Cl)c23)nc2cc(C(N)=O)ccc21 (single isomer, unassigned) [Example 2.2] ; human HAQ isoform of STING (Homo sapiens (Human), UniProt Q86WV6, G230A/H232R/R293Q/R71H); reported EC50 was 8.32

Test item NC(=O)c1ccc2c(c1)nc(-c1c(C(=O)O)sc3cccc(Br)c13)n2CCn1c(-c2c(C(=O)O)sc3cccc(Br)c23)nc2cc(C(N)=O)ccc21 (single isomer, unassigned) [Example 11.1] ; human HAQ isoform of STING (Homo sapiens (Human), UniProt Q86WV6, G230A/H232R/R293Q/R71H); reported EC50 was 0.182

###

# system-under-test: human STING (HAQ) (Homo sapiens (Human), UniProt Q86WV6, G230A/H232R/R293Q)
# protocol-notes: Differential scanning fluorimetry (DSF), huSTING (HAQ)
# Assay type: binding
# run-conditions: compound 100 μM, 2 μM protein, Tm with ligand minus Tm of protein alone (1% DMSO)
DSF huSTING (HAQ) ΔTm overview
Enter your answer as a number in °C; do not include the unit.

compound	DSF huSTING (HAQ) ΔTm [°C]
COc1ccc(F)c2sc(C(=O)O)c(-c3nc4cc(C(N)=O)ccc4n3CCn3c(-c4c(C(=O)O)sc5c(F)ccc(OC)c45)nc4cc(C(N)=O)ccc43)c12 (single isomer, unassigned) [Example 13.1]	31.23

Reported DSF huSTING (HAQ) ΔTm of NC(=O)c1ccc2c(c1)nc(-c1c(C(=O)O)sc3c(F)ccc(Br)c13)n2CCn1c(-c2c(C(=O)O)sc3c(F)ccc(Br)c23)nc2cc(C(N)=O)ccc21 (single isomer, unassigned) [Example 20.1] : 31.76

Reported DSF huSTING (HAQ) ΔTm of NC(=O)c1ccc2c(c1)nc(-c1c(C(=O)O)sc3cccc(C(F)(F)F)c13)n2CCn1c(-c2c(C(=O)O)sc3cccc(C(F)(F)F)c23)nc2cc(C(N)=O)ccc21 (single isomer, unassigned) [Example 19.2] : 12.26

Reported DSF huSTING (HAQ) ΔTm of NC(=O)c1ccc2c(c1)nc(-c1c(C(=O)O)sc3cccc(Cl)c13)n2CCn1c(-c2c(C(=O)O)sc3cccc(Cl)c23)nc2cc(C(N)=O)ccc21 (single isomer, unassigned) [Example 1.2] : 0.13

Reported DSF huSTING (HAQ) ΔTm of COc1cccc2sc(C(=O)O)c(-c3nc4cc(C(N)=O)ccc4n3CCn3c(-c4c(C(=O)O)sc5cccc(OC)c45)nc4cc(C(N)=O)ccc43)c12 (single isomer, unassigned) [Example 5.1] : 23.59

Reported DSF huSTING (HAQ) ΔTm of NC(=O)c1ccc2c(c1)nc(-c1c(C(=O)O)sc3cccc(Br)c13)n2CCn1c(-c2c(C(=O)O)sc3cccc(Br)c23)nc2cc(C(N)=O)ccc21 (single isomer, unassigned) [Example 11.2] : −1.75

Reported DSF huSTING (HAQ) ΔTm of COc1ccc(F)c2sc(C(=O)O)c(-c3nc4cc(C(N)=O)ccc4n3CCn3c(-c4c(C(=O)O)sc5c(F)ccc(OC)c45)nc4cc(C(N)=O)ccc43)c12 (single isomer, unassigned) [Example 13.2] : 0.89

Reported DSF huSTING (HAQ) ΔTm of NC(=O)c1ccc2c(c1)nc(-c1c(C(=O)O)sc3c(F)ccc(Br)c13)n2CCn1c(-c2c(C(=O)O)sc3c(F)ccc(Br)c23)nc2cc(C(N)=O)ccc21 (single isomer, unassigned) [Example 20.2] : 0.44

Reported DSF huSTING (HAQ) ΔTm of NC(=O)c1ccc2c(c1)nc(-c1c(C(=O)O)sc3cccc(Br)c13)n2CCn1c(-c2c(C(=O)O)sc3cccc(Br)c23)nc2cc(C(N)=O)ccc21 (single isomer, unassigned) [Example 11.1] : 31.05

###

# system-under-test: WT human STING isoform (Homo sapiens (Human), UniProt Q86WV6, H232R)
# Sequence (Q86WV6 whole entry H232R, canonical isoform): as the sequence (Q86WV6 whole entry R71H/G230A/H232R/R293Q, canonical isoform) above, with H71R, A230G, Q293R counted along it
# protocol-notes: THP-1-Dual KI-hSTING-R232 reporter cell line assay
# run-conditions: 24 h incubation, luminescence, normalized to ML RR-S2 CDA 40 μM; read-out: EC50 THP-1 Dual KI-hSTING-R232 cells
pEC50: −log10 of the molar value.
Please note: condition met applies when pEC50 is 6 or greater, and condition not met applies otherwise.

molecule	assigned-class
COc1nccc2sc(C(=O)O)c(-c3nc4cc(C(N)=O)ccc4n3CCn3c(-c4c(C(=O)O)sc5ccnc(OC)c45)nc4cc(C(N)=O)ccc43)c12 [Example 7]	condition not met
NC(=O)c1ccc2c(c1)nc(-c1c(C(=O)O)sc3cccc(Cl)c13)n2CCCn1c(-c2c(C(=O)O)sc3cccc(Cl)c23)nc2cc(C(N)=O)ccc21 (single isomer, unassigned) [Example 4.1]	condition not met
COc1c(C(N)=O)ccc2c1nc(-c1c(C(=O)O)sc3cccc(Cl)c13)n2CCn1c(-c2c(C(=O)O)sc3cccc(Cl)c23)nc2c(OC)c(C(N)=O)ccc21 (single isomer, unassigned) [Example 22.1]	condition met

Tell me whether pEC50 is at least 6 here: CCOC(=O)c1sc2cccc(OCC)c2c1-c1nc2cc(C(N)=O)ccc2n1CCn1c(-c2c(C(=O)OCC)sc3cccc(OCC)c23)nc2cc(C(N)=O)ccc21 [Example 23]
condition not met

Tell me whether pEC50 is at least 6 here: CCOC(=O)c1sc2cccc(Br)c2c1-c1nc2cc(C(N)=O)ccc2n1CCn1c(-c2c(C(=O)OCC)sc3cccc(Br)c23)nc2cc(C(N)=O)ccc21 [Example 10]
condition not met

Tell me whether pEC50 is at least 6 here: NC(=O)c1ccc2c(c1)nc(-c1c(C(=O)O)sc3cccc(Cl)c13)n2CCn1c(-c2c(C(=O)O)sc3cccc(Cl)c23)nc2cc(C(N)=O)ccc21 (single isomer, unassigned) [Example 1.1]
condition met

Tell me whether pEC50 is at least 6 here: CCOc1cccc2sc(C(=O)O)c(-c3nc4cc(C(N)=O)ccc4n3CCn3c(-c4c(C(=O)O)sc5cccc(OCC)c45)nc4cc(C(N)=O)ccc43)c12 [Example 24]
condition not met

Tell me whether pEC50 is at least 6 here: NC(=O)c1ccc2c(c1)nc(-c1c(C(=O)O)sc3ccccc13)n2CCn1c(-c2c(C(=O)O)sc3ccccc23)nc2cc(C(N)=O)ccc21 [Example 9]
condition not met

Tell me whether pEC50 is at least 6 here: Cc1cccc2sc(C(=O)O)c(-c3nc4cc(C(N)=O)ccc4n3CCn3c(-c4c(C(=O)O)sc5cccc(C)c45)nc4cc(C(N)=O)ccc43)c12 (single isomer, unassigned) [Example 15.2]
condition met

Tell me whether pEC50 is at least 6 here: NC(=O)c1ccc2c(c1)nc(-c1c(C(=O)O)sc3c(F)ccc(Cl)c13)n2CCn1c(-c2c(C(=O)O)sc3c(F)ccc(Cl)c23)nc2cc(C(N)=O)ccc21 (single isomer, unassigned) [Example 2.1]
condition met

Tell me whether pEC50 is at least 6 here: COc1c(C(N)=O)ccc2c1nc(-c1c(C(=O)O)sc3cccc(Cl)c13)n2CCn1c(-c2c(C(=O)O)sc3cccc(Cl)c23)nc2c(OC)c(C(N)=O)ccc21 (single isomer, unassigned) [Example 22.2]
condition met

Tell me whether pEC50 is at least 6 here: CCOC(=O)c1sc2c(F)ccc(OC)c2c1-c1nc2cc(C(N)=O)ccc2n1CCn1c(-c2c(C(=O)OCC)sc3c(F)ccc(OC)c23)nc2cc(C(N)=O)ccc21 [Example 12]
condition not met

Tell me whether pEC50 is at least 6 here: COc1ccc(F)c2sc(C(=O)O)c(-c3nc4cc(C(N)=O)ccc4n3CCn3c(-c4c(C(=O)O)sc5c(F)ccc(OC)c45)nc4cc(C(N)=O)ccc43)c12 (single isomer, unassigned) [Example 13.2]
condition not met
